Tested on: narcotized dog
Experiment: Haemodynamic parameters in the narcotized dog (Test C)
Type: in vivo
Settings: coronary blood flow, % maximum variation from initial value; 0.3 mg/kg i.v.
Procedure: C. […] The values are given as the % maximum variation from the initial value (Δ %) and the duration of this variation (t) per dosage administered. […] Blood pH, pC2 O , pO2 and haemoglobin are measured hourly with a blood-gas analyser. The blood pressure (systolic and diastolic) is measured with a probe in the aorta abdominalis. The heart freguency is recorded by means of a tachometer, which is disengaged from the pressure pulse. […]
// returns No unless CBF Δ % is strictly below 80%, in which case Yes

- structure_as_smiles: "COCC(=O)O[C@]1(CCN(C)CCCCCc2nc3ccccc3s2)CCc2cc(F)ccc2[C@@H]1C(C)C"
  tested_on: "narcotized dog"
  classification: "No"
- structure_as_smiles: "COCC(=O)O[C@]1(CCN(C)CCCc2nc(-c3ccccc3)c(-c3ccccc3)n2C)CCc2cc(F)ccc2[C@@H]1C(C)C"
  tested_on: "narcotized dog"
  classification: "No"
- structure_as_smiles: "CCCCNC(=O)O[C@]1(CCN(C)CCCCCc2nc3ccccc3n2C)CCc2cc(F)ccc2[C@@H]1C(C)C"
  tested_on: "narcotized dog"
  classification: "Yes"
- structure_as_smiles: "CCCCCCCCCCCCn1c(CCCCCCCN(C)CC[C@@]2(OC(=O)COC)CCc3cc(F)ccc3[C@@H]2C(C)C)nc2ccccc21"
  tested_on: "narcotized dog"
  classification: "Yes"
- structure_as_smiles: "CC(C)[C@H]1c2ccc(F)cc2CC[C@]1(O)CCN(C)CCCCCCCc1nc2ccccc2[nH]1"
  tested_on: "narcotized dog"
  classification: "Yes"
- structure_as_smiles: "COCC(=O)O[C@]1(CCN(C)CCCc2nc3ccccc3[nH]2)CCc2cc(F)ccc2[C@@H]1C(C)C"
  tested_on: "narcotized dog"
  classification: "No"

Values compiled from patent US4808605A.
